Taken from ChEMBL document CHEMBL4765228.

target: SRSF protein kinase 1 (Homo sapiens) (UniProt Q96SB4); experiment: Inhibition of human SRPK1 assessed as residual activity at 1 uM relative to control
Sequence (Q96SB4 whole entry): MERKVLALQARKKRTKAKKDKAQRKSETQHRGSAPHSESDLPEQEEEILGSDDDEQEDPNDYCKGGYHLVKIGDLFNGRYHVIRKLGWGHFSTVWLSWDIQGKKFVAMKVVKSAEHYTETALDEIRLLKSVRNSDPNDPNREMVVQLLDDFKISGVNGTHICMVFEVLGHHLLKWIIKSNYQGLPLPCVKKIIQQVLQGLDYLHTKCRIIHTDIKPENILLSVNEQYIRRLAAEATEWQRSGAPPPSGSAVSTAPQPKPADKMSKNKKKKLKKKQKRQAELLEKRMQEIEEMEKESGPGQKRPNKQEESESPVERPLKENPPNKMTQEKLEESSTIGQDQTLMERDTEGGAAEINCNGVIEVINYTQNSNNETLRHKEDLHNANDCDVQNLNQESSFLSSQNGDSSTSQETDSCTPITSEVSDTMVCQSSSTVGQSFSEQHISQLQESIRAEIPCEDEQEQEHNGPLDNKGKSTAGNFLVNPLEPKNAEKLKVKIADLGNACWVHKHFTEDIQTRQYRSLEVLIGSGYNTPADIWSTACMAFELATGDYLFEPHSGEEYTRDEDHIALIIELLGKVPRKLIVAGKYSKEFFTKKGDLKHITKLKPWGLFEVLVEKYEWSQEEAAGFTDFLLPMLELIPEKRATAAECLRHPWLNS
Metric: Activity (%)

Molecular string | Value units | Activity
COc1ccc2c(c1)c(/C=C1\C(=O)Nc3ccc(S(N)(=O)=O)cc31)cn2C | % | 99
CN(C)S(=O)(=O)c1ccc2c(c1)/C(=C/c1cn(C)c3ccc(O)cc13)C(=O)N2 | % | 94
COc1ccc2[nH]cc(/C=C3\C(=O)Nc4ccc(S(N)(=O)=O)cc43)c2c1 | % | 93
CNS(=O)(=O)c1ccc2c(c1)/C(=C/c1cn(C)c3ccc(OC)cc13)C(=O)N2 | % | 101
Cn1cc(/C=C2\C(=O)Nc3ccc(S(N)(=O)=O)cc32)c2ccccc21 | % | 101
COc1ccc2c(c1)c(/C=C1\C(=O)Nc3ccc(S(=O)(=O)N(C)C)cc31)cn2C | % | 95

* * *

biological target: Serine/threonine-protein kinase D1 (Homo sapiens); assay: Inhibition of human PKCmu assessed as residual activity at 0.1 uM relative to control
Metric: Activity (%)

Molecular string | Activity, %
COc1ccc2c(c1)c(/C=C1\C(=O)Nc3ccc(S(=O)(=O)N(C)C)cc31)cn2C | 89
CN(C)S(=O)(=O)c1ccc2c(c1)/C(=C/c1cn(C)c3ccc(O)cc13)C(=O)N2 | 99
COc1ccc2c(c1)c(/C=C1\C(=O)Nc3ccc(S(N)(=O)=O)cc31)cn2C | 90
CNS(=O)(=O)c1ccc2c(c1)/C(=C/c1cn(C)c3ccc(OC)cc13)C(=O)N2 | 92
Cn1cc(/C=C2\C(=O)Nc3ccc(S(N)(=O)=O)cc32)c2ccccc21 | 95
COc1ccc2[nH]cc(/C=C3\C(=O)Nc4ccc(S(N)(=O)=O)cc43)c2c1 | 95

* * *

molecular target: UniProtKB Q9NWZ3; assay: Inhibition of human untagged IRAK4 assessed as residual activity at 1 uM relative to control
Sequence (Q9NWZ3 whole entry): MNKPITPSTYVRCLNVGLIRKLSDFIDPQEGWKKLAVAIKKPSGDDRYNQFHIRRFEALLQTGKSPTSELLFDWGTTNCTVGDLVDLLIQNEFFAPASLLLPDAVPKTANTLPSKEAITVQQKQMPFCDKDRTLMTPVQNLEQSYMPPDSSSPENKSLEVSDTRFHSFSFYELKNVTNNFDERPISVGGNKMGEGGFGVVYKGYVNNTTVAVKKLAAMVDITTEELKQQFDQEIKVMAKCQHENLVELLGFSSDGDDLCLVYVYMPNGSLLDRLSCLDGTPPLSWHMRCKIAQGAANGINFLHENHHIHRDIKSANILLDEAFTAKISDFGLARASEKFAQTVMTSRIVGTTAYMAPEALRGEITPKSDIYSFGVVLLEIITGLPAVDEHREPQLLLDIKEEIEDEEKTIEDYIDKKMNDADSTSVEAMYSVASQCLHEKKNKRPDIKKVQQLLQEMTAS
Metric: Activity (%)

Here is how some molecules turned out for Activity.
Molecular string | Subject of test | Activity, %
CN(C)S(=O)(=O)c1ccc2c(c1)/C(=C/c1cn(C)c3ccc(O)cc13)C(=O)N2 | UniProtKB Q9NWZ3 | 52
COc1ccc2c(c1)c(/C=C1\C(=O)Nc3ccc(S(=O)(=O)N(C)C)cc31)cn2C | UniProtKB Q9NWZ3 | 83

[1] CNS(=O)(=O)c1ccc2c(c1)/C(=C/c1cn(C)c3ccc(OC)cc13)C(=O)N2
[2] COc1ccc2c(c1)c(/C=C1\C(=O)Nc3ccc(S(N)(=O)=O)cc31)cn2C
Q: Could you please tell me which of these two has the higher Activity: 1 or 2 ? Pick one; state its label.
Ans: 1
(1: 37%, 2: 20%)

[1] Cn1cc(/C=C2\C(=O)Nc3ccc(S(N)(=O)=O)cc32)c2ccccc21
[2] COc1ccc2[nH]cc(/C=C3\C(=O)Nc4ccc(S(N)(=O)=O)cc43)c2c1
Q: Could you please tell me which of these two has the higher Activity: 1 or 2 ? Pick one; state its label.
Ans: 2

* * *

Target: Mitogen-activated protein kinase kinase kinase 7 (Homo sapiens)
Sequence (whole entry): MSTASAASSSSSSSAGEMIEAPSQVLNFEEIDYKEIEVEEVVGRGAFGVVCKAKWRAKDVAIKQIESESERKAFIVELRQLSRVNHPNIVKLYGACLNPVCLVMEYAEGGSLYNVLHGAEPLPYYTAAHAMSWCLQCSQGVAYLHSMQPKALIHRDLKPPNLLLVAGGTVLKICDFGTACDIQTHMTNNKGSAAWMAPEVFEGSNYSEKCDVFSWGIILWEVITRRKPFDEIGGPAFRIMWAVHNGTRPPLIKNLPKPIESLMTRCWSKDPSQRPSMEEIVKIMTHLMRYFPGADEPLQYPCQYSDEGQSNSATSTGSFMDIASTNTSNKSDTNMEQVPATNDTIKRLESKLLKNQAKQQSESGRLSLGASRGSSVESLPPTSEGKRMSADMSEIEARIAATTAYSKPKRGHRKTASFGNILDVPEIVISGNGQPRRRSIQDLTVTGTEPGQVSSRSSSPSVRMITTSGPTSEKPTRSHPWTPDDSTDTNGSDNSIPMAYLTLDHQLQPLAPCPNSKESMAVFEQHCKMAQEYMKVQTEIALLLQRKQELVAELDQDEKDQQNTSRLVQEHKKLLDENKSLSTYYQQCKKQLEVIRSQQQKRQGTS
Test: Inhibition of human MAP3K7 assessed as residual activity at 0.1 uM relative to control
Metric: Activity (%)

Molecular string | Subject of test | Activity / %
COc1ccc2c(c1)c(/C=C1\C(=O)Nc3ccc(S(=O)(=O)N(C)C)cc31)cn2C | Mitogen-activated protein kinase kinase kinase 7 (Homo sapiens) | 106
COc1ccc2[nH]cc(/C=C3\C(=O)Nc4ccc(S(N)(=O)=O)cc43)c2c1 | Mitogen-activated protein kinase kinase kinase 7 (Homo sapiens) | 93
Cn1cc(/C=C2\C(=O)Nc3ccc(S(N)(=O)=O)cc32)c2ccccc21 | Mitogen-activated protein kinase kinase kinase 7 (Homo sapiens) | 85
CNS(=O)(=O)c1ccc2c(c1)/C(=C/c1cn(C)c3ccc(OC)cc13)C(=O)N2 | Mitogen-activated protein kinase kinase kinase 7 (Homo sapiens) | 104
CN(C)S(=O)(=O)c1ccc2c(c1)/C(=C/c1cn(C)c3ccc(O)cc13)C(=O)N2 | Mitogen-activated protein kinase kinase kinase 7 (Homo sapiens) | 101
COc1ccc2c(c1)c(/C=C1\C(=O)Nc3ccc(S(N)(=O)=O)cc31)cn2C | Mitogen-activated protein kinase kinase kinase 7 (Homo sapiens) | 93

* * *

biological target: 5'-AMP-activated protein kinase catalytic subunit alpha-1 (Homo sapiens) (UniProt Q13131); assay: Inhibition of human AMPKalpha1 (1 to 550 residues assessed as residual activity at 1 uM relative to control
Sequence (Q13131 whole entry, looked up, the tested form may be a part): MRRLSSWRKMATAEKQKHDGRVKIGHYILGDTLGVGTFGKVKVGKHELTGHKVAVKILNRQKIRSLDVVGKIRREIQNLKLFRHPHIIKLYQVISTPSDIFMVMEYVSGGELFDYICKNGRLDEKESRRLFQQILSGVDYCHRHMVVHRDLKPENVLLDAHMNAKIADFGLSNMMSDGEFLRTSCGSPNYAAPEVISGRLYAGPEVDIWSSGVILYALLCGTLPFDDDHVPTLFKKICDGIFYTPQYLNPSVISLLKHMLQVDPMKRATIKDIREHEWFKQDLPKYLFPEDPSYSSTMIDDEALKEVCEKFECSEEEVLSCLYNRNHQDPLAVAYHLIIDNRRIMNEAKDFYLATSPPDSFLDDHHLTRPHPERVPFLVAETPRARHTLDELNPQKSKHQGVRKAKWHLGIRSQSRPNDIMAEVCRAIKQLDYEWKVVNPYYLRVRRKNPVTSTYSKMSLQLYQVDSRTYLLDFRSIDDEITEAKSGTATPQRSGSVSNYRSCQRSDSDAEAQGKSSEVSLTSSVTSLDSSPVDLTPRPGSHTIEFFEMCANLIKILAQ
Metric: Activity (%)

Here is how some compounds turned out for Activity.
Molecular string | Activity [%]
COc1ccc2[nH]cc(/C=C3\C(=O)Nc4ccc(S(N)(=O)=O)cc43)c2c1 | 72
CN(C)S(=O)(=O)c1ccc2c(c1)/C(=C/c1cn(C)c3ccc(O)cc13)C(=O)N2 | 87
COc1ccc2c(c1)c(/C=C1\C(=O)Nc3ccc(S(N)(=O)=O)cc31)cn2C | 89
CNS(=O)(=O)c1ccc2c(c1)/C(=C/c1cn(C)c3ccc(OC)cc13)C(=O)N2 | 88

[a] Cn1cc(/C=C2\C(=O)Nc3ccc(S(N)(=O)=O)cc32)c2ccccc21
[b] COc1ccc2c(c1)c(/C=C1\C(=O)Nc3ccc(S(=O)(=O)N(C)C)cc31)cn2C
Q: Could you please tell me which of these two has the higher Activity: a or b ? Pick one; state its label.
Ans: b

* * *

species on record: Homo sapiens; assay: Inhibition of human PKA assessed as residual activity at 0.1 uM relative to control
Metric: Activity (%)

Molecular string | Activity / %
CNS(=O)(=O)c1ccc2c(c1)/C(=C/c1cn(C)c3ccc(OC)cc13)C(=O)N2 | 91
COc1ccc2c(c1)c(/C=C1\C(=O)Nc3ccc(S(N)(=O)=O)cc31)cn2C | 91
COc1ccc2c(c1)c(/C=C1\C(=O)Nc3ccc(S(=O)(=O)N(C)C)cc31)cn2C | 91
CN(C)S(=O)(=O)c1ccc2c(c1)/C(=C/c1cn(C)c3ccc(O)cc13)C(=O)N2 | 94
COc1ccc2[nH]cc(/C=C3\C(=O)Nc4ccc(S(N)(=O)=O)cc43)c2c1 | 88
Cn1cc(/C=C2\C(=O)Nc3ccc(S(N)(=O)=O)cc32)c2ccccc21 | 94

* * *

target: 3-phosphoinositide-dependent protein kinase 1 (Homo sapiens) (UniProt O15530); assay: Inhibition of human PDK1 assessed as residual activity at 0.1 uM relative to control
Sequence (O15530 whole entry, looked up): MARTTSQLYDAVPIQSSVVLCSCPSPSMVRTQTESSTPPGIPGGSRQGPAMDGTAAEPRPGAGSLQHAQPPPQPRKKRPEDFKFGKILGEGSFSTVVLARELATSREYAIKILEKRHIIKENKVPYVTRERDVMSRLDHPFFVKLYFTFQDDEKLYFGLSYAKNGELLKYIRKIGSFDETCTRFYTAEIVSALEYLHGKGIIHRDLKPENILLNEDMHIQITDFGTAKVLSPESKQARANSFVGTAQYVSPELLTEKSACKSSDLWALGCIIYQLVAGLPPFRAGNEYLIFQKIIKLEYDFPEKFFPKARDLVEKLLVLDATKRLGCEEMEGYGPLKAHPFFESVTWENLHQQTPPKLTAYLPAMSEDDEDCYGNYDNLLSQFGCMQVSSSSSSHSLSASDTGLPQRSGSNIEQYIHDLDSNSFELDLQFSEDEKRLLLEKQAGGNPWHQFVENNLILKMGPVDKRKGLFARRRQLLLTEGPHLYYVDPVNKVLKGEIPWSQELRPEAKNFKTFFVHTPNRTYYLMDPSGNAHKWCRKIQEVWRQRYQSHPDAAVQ
Metric: Activity (%)

Molecular string | Value reported
COc1ccc2c(c1)c(/C=C1\C(=O)Nc3ccc(S(=O)(=O)N(C)C)cc31)cn2C | 99
COc1ccc2[nH]cc(/C=C3\C(=O)Nc4ccc(S(N)(=O)=O)cc43)c2c1 | 98
COc1ccc2c(c1)c(/C=C1\C(=O)Nc3ccc(S(N)(=O)=O)cc31)cn2C | 93
Cn1cc(/C=C2\C(=O)Nc3ccc(S(N)(=O)=O)cc32)c2ccccc21 | 90
CN(C)S(=O)(=O)c1ccc2c(c1)/C(=C/c1cn(C)c3ccc(O)cc13)C(=O)N2 | 94
CNS(=O)(=O)c1ccc2c(c1)/C(=C/c1cn(C)c3ccc(OC)cc13)C(=O)N2 | 92

* * *

target: Receptor-interacting serine/threonine-protein kinase 2 (Homo sapiens) (UniProt O43353); assay: Inhibition of human RIPK2 assessed as residual activity at 0.1 uM relative to control
Sequence (O43353 whole entry): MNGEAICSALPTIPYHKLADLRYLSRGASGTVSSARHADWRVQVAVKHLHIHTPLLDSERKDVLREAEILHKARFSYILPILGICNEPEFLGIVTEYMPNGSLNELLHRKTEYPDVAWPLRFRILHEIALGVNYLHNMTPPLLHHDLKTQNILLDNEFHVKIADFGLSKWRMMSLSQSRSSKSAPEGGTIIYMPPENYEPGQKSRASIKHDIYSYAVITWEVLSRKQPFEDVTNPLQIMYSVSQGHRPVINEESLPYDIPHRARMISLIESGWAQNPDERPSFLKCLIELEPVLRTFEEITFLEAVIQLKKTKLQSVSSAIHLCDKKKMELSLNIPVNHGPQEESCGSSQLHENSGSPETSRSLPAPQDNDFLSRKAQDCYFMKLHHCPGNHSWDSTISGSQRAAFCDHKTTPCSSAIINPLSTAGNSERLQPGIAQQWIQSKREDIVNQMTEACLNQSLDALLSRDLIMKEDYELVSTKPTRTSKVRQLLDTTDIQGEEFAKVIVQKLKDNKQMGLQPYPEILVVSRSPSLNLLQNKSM
Metric: Activity (%)

Molecular string | Value units | Activity
CNS(=O)(=O)c1ccc2c(c1)/C(=C/c1cn(C)c3ccc(OC)cc13)C(=O)N2 | % | 108
COc1ccc2c(c1)c(/C=C1\C(=O)Nc3ccc(S(=O)(=O)N(C)C)cc31)cn2C | % | 104
Cn1cc(/C=C2\C(=O)Nc3ccc(S(N)(=O)=O)cc32)c2ccccc21 | % | 102
COc1ccc2c(c1)c(/C=C1\C(=O)Nc3ccc(S(N)(=O)=O)cc31)cn2C | % | 100
CN(C)S(=O)(=O)c1ccc2c(c1)/C(=C/c1cn(C)c3ccc(O)cc13)C(=O)N2 | % | 94
COc1ccc2[nH]cc(/C=C3\C(=O)Nc4ccc(S(N)(=O)=O)cc43)c2c1 | % | 96
